measurement target: EcMazE full-length (Escherichia coli, UniProt P0AE72 1-82)
Sequence (P0AE72 whole entry): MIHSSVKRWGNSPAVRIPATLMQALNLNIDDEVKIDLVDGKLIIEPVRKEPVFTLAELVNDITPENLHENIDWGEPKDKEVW
assay remarks: ITC
assay endpoint: pKd
One number for each entry, as −log10 of the molar value.

stdin: Answer with the recorded pKd for the binder listed here: DNA 'a' (14 bp) (dsDNA) DNA 1: TTGATATATACTGT DNA 2: ACAGTATATATCAA
stdout: 5.29
